Could you please report measured melting point for the items listed next?
Where a name gives a salt, the structure may show the parent alone.

Some compounds with recorded melting point:
{"compound": "N#Cc1ccc(C(NC[C@H]2O[C@@H](n3ccc(=O)[nH]c3=O)C[C@@H]2O)(c2ccccc2)c2ccccc2)cc1 [Example 22]", "melting point": "160 to 163 °C"}
{"compound": "O=c1ccn(C2CC(O)C(CNC3(c4ccccc4)c4ccccc4Oc4ccccc43)O2)c(=O)[nH]1 (stereo not drawn) [Example 26, 5′-Pixylamino-2′,5′-dideoxyuridine]", "melting point": "117 to 119 °C"}
{"compound": "O=c1ccn(C2CC(O)C(CNC(c3ccccc3)(c3ccccc3)c3ccncc3)O2)c(=O)[nH]1 (stereo not drawn) [Example 8]", "melting point": "131 to 133 °C"}
{"compound": "O=c1ccn([C@H]2C[C@H](O)[C@@H](CNC(c3ccccc3)(c3ccccc3)c3ccccc3Cl)O2)c(=O)[nH]1 [Example 24]", "melting point": "129 to 131 °C"}
{"compound": "COc1ccc(C(NC[C@H]2O[C@@H](n3ccc(=O)[nH]c3=O)CC2O)(c2ccccc2)c2ccccc2)cc1 (stereo partly drawn) (as salt: salt) [Example 23]", "melting point": "140 to 142 °C"}

Now for a further compound.
Request: For the compound shown here, COc1ccc(C(OC[C@H]2O[C@@H](n3ccc(=O)[nH]c3=O)CC2O)(c2ccccc2)c2ccccc2)cc1 (stereo partly drawn) [Example 20, 5′-O-paramethoxytrityl-2′-deoxyuridine] , give the reported melting point.
Result: 96 to 97 °C

====

Target: Plasmodium falciparum dUTPase (Plasmodium falciparum)
Construct: made in house; host or cells: E. coli BL21 (DE3)
Sequence (Q8II92 1-173): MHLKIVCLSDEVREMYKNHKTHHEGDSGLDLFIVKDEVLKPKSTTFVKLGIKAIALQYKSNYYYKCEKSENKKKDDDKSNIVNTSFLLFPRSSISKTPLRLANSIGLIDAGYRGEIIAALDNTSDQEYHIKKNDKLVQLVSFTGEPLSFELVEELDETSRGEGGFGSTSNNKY
Assay: Malaria enzyme assay: inhibition of Plasmodium falciparum dUTPase
Assay type: biochemical
Experimental: Inhibition of Plasmodium falciparum dUTPase 2′-dUTP, was purchased from Pharmacia. MgCl2, BSA, and the pH indicator cresol red were from Sigma. The buffer N,N-bis(2-hydroxyethyl)glycine (BICINE) was obtained from USB (United States Biochemical), Ohio. All the concentrations of nucleotides were calculated spectrophotometrically (HP-8453, Hewlett Packard) at 280 nm, using the extinction coefficient (ε280 nm=1.75 ml mg^−1cm^−1). […]
Could you please report measured pKi for the items listed next?
Numbers only, as −log10 of the molar value.

{"compound": "CC(C)(C)[Si](OC[C@H]1O[C@@H](n2ccc(=O)[nH]c2=O)CC1F)(c1ccccc1)c1ccccc1 (stereo partly drawn) [drawing 58 TBDPSO]", "pKi": 4.05}

# map each compound to its pKi
1. CC(C)(C)[Si](C)(C)OC1CC(n2ccc(=O)[nH]c2=O)OC1COC(c1ccccc1)(c1ccccc1)c1ccccc1 (stereo not drawn) [drawing 56 Ph3CO]
2. O=c1ccn([C@H]2C[C@H](F)[C@@H](CNC(c3ccccc3)(c3ccccc3)c3ccccc3)O2)c(=O)[nH]1 [drawing 58 Ph3NH]
3. O=c1ccn([C@H]2C[C@H](F)[C@@H](CO[Si](c3ccccc3)(c3ccccc3)c3ccccc3)O2)c(=O)[nH]1 [drawing 58 TPSO]
4. CC(C)(C)[Si](C)(C)OC1C[C@H](n2ccc(=O)[nH]c2=O)O[C@@H]1CNC(c1ccccc1)(c1ccccc1)c1ccccc1 (stereo partly drawn) [drawing 56 Ph3NH]
5. O=c1ccn([C@H]2C=C[C@@H](CO[Si](c3ccccc3)(c3ccccc3)c3ccccc3)O2)c(=O)[nH]1 [drawing 57 TPSO]

Result:
[3.29, 4.92, 3.01, 3.50, 5.89]

====

Target: Plasmodium falciparum dUTPase (Plasmodium falciparum)
Construct: made in house; host or cells: E. coli BL21 (DE3)
Assay: Malaria enzyme assay: inhibition of Plasmodium falciparum dUTPase
Type: biochemical
Conditions: Plasmodium falciparum enzyme; read-out: Ki
Experimental: Inhibition of Plasmodium falciparum dUTPase 2′-dUTP, was purchased from Pharmacia. MgCl2, BSA, and the pH indicator cresol red were from Sigma. The buffer N,N-bis(2-hydroxyethyl)glycine (BICINE) was obtained from USB (United States Biochemical), Ohio. All the concentrations of nucleotides were calculated spectrophotometrically (HP-8453, Hewlett Packard) at 280 nm, using the extinction coefficient (ε280 nm=1.75 ml mg^−1cm^−1). […]
pKi: −log10 of the molar value.
Note to self: values exactly at 6 are true (1). So pKi at or above 6 is true (1), below is false (0).

Request: Hello, I need to know if O=c1ccn([C@H]2C[C@H](O)[C@@H](COC(c3ccccc3)(c3ccccc3)c3ccccc3)O2)c(=O)[nH]1 [drawing 55 Ph3CO, 5′-O-trityl-2′-deoxyuridine] has measured pKi not below 6. Thanks!
Result: false (0)

Request: Now try O=c1ccn([C@H]2C[C@H](O)[C@@H](CO[Si](c3ccccc3)(c3ccccc3)c3ccccc3)O2)c(=O)[nH]1 [drawing 55 TPSO, 5′-O-Triphenylsilyl-2′-deoxyuridine] .
Result: false (0)

Request: Now try CC(C)(C)[Si](OC[C@H]1O[C@@H](n2ccc(=O)[nH]c2=O)C[C@@H]1O)(c1ccccc1)c1ccccc1 [drawing 55 TBDPSO] .
Result: false (0)

Request: Now try O=c1ccn([C@H]2C[C@H](O)[C@@H](CNC(c3ccccc3)(c3ccccc3)c3ccccc3)O2)c(=O)[nH]1 [drawing 55 Ph3CNH, 5′-Tritylamino-2′,5′-dideoxyuridine] .
Result: true (1)

Request: Now try O=c1ccn([C@H]2C[C@H](F)[C@@H](COC(c3ccccc3)(c3ccccc3)c3ccccc3)O2)c(=O)[nH]1 [drawing 58 Ph3CO] .
Result: false (0)
